- measurement_target: T1, Cbx7.V1 (tags removed, used for FP and ITC) (human, UniProt O95931 7-66, E8D (printed as the back-mutation D8E) | Q9D | V10I (printed as the …))
- T1 construct: chromodomain of human Cbx7 (Cbx7-chromo), UniProt O95931; source: E. coli BL21(DE3), purified (Ni-NTA; tags removed with TEV protease)
- T1 sequence: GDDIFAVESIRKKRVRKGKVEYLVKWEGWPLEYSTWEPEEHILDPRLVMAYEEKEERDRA
- experimental_protocol: fluorescence polarisation; 0.5 nM FITC-labelled peptide; chromodomains 200-0.2 µM (wild type) or 50 µM-50 nM (Cbx7.V1 and all Cbx.VDs); 30 min at 25 °C; 25 mM HEPES pH 7.5, 150 mM NaCl, 1 mM DTT, 0.01% TritonX-100; one-site total binding model
- recorded_conditions: both partners purified
pKd: −log10 of the molar value.
value_kind: pKd

[A] KQLATKAARKSAPATGGVK (trimethyl-lysine at K27; fluorescein isothiocyanate (FITC) at the N-terminus) [H3K27me3 peptide, N-terminal FITC]
[B] ARTKQTARKSTGGKAPR (trimethyl-lysine at K9; fluorescein isothiocyanate (FITC) at the N-terminus) [H3K9me3 peptide, N-terminal FITC]
Dear colleague, could you let me know whether A or B has the lower recorded pKd? Thanks. Return value: the label identifying the chosen record.
B
